# System: Plasmodium falciparum NF54 asexual blood stage
# TEST_METHOD_NOTES: % inhibition of asexual blood stage proliferation (pLDH); higher = more inhibition
# EXPERIMENTAL_PARAMETERS: 2 µM; 72 h
Note to self: values exactly at 40% are 1. So % inhibition of asexual blood stage proliferation at or above 40% is 1, below is -1.

# input Does the reported % inhibition of asexual blood stage proliferation for O=C(O)COc1cccc2c1CC[C@](O)(COC(=O)N(c1ccccc1)c1ccccc1)C2 fall at or above the 40% mark?
# output -1

# input Could you verify whether the entry Cc1ccccc1NC(=O)Nc1cccc([N+](=O)[O-])c1 shows % inhibition of asexual blood stage proliferation of no less than 40%?
# output -1

# input Can CCOCc1nc2c(N)nc3ccccc3c2n1CC(C)(C)O be said to have % inhibition of asexual blood stage proliferation at or above 40%?
# output 1

# input I'd appreciate it if you could say whether CN(C/C=C/C#CC(C)(C)C)Cc1cccc2ccccc12 has % inhibition of asexual blood stage proliferation at least equal to 40%.
# output -1

# input Is the recorded value of % inhibition of asexual blood stage proliferation equal to or greater than 40% for this compound? Cc1cc(CCCOc2c(C)cc(-c3noc(C(F)(F)F)n3)cc2C)on1
# output 1
